# Test system: T47D (PI3Kα-H1047R) cell line
# METHOD_SUMMARY: HTRF phospho-AKT(S473) cell assay in T47D cells
# Type: cell-based, human
# SETUP_CONDITIONS: Homo sapiens; HTRF phospho-AKT(S473), T47D (PI3Kα-H1047R) cells, 2 hours compound incubation
pIC50: −log10 of the molar value.
pIC50 values, listed per item

1. Cc1cc([C@@H](C)Nc2ccc(Cl)nc2C(=O)NS(C)(=O)=O)c2nc(N3CCC(c4nc(C)n(C)n4)CC3)n(C)c(=O)c2c1 ... > 6.60
2. Cc1cc([C@@H](C)Nc2ccc(Cl)nc2C(=O)NS(C)(=O)=O)c2nc(N3CC[C@@H](c4ccnc(C)c4)C3)n(C)c(=O)c2c1 (relative stereo) ... > 6.60
3. Cc1cc([C@@H](C)Nc2ccc(Cl)nc2C(=O)NS(C)(=O)=O)c2nc(-c3cc(F)c4nn(C)cc4c3)n(C)c(=O)c2c1 ... > 6.60
4. Cc1cc([C@@H](C)Nc2ccc(Cl)nc2C(=O)NS(C)(=O)=O)c2nc(N3Cc4ccc(C)nc4C3)n(C)c(=O)c2c1 ... > 6.60

Turning now to a further record.
QUERY: pIC50 lookup needed for CCn1c(N2C[C@@H]3[C@H](C2)[C@H]3c2cnc(C)nc2)nc2c([C@@H](C)Nc3ccc(Cl)nc3C(=O)NS(C)(=O)=O)cc(C)cc2c1=O , thanks.
RESULT: > 6.60

###

# TARGET_OR_TEST_SYSTEM: PI3Kα H1047R (Homo sapiens, UniProt P42336, H1047R)
# Sequence (P42336 whole entry H1047R): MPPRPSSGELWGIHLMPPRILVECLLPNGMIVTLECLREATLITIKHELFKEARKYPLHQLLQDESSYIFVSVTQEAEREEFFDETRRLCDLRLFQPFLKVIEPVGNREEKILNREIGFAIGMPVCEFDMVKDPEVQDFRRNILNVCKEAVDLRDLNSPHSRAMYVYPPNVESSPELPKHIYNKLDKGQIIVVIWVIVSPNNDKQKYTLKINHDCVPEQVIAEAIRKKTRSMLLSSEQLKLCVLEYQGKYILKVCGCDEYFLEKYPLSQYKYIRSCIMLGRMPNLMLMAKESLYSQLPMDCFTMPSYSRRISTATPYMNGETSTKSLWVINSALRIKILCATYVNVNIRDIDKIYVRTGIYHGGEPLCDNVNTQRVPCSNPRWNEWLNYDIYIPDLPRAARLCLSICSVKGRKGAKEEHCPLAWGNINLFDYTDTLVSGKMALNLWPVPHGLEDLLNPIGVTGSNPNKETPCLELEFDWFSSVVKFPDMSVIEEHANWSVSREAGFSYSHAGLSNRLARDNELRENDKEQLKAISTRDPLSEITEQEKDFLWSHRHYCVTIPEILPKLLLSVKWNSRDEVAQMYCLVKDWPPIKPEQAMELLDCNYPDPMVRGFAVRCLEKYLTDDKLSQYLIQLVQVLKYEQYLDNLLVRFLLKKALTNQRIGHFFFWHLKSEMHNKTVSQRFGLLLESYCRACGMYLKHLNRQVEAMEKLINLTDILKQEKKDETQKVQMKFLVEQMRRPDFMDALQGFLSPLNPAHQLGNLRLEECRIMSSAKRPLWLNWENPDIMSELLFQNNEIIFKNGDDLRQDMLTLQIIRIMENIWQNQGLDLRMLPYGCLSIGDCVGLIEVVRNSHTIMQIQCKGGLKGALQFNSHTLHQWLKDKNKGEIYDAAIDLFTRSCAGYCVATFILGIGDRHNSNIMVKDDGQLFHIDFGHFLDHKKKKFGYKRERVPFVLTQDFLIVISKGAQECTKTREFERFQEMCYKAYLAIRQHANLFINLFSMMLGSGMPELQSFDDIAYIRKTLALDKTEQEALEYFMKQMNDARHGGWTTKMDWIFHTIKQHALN
# Sequence (P27986 2-724 partner): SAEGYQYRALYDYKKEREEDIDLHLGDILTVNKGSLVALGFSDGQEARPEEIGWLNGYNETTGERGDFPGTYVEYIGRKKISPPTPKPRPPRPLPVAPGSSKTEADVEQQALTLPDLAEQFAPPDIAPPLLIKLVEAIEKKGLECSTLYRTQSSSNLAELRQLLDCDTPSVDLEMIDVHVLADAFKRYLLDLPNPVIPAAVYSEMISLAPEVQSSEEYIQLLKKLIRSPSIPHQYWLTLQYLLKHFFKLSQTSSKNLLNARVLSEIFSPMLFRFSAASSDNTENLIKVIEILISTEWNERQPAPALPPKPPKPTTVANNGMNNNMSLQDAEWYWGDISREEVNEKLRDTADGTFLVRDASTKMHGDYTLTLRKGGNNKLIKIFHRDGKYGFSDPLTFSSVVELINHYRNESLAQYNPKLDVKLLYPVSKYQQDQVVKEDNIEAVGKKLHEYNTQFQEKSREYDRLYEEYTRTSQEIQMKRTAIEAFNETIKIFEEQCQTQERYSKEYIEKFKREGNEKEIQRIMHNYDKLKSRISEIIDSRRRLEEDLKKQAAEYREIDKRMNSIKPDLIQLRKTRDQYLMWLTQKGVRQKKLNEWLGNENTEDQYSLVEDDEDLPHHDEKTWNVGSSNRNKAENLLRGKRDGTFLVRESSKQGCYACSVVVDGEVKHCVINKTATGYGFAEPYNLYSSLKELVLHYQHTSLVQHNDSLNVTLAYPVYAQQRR
# METHOD_SUMMARY: PI3Kα H1047R enzyme assay (Transcreener ADP2 TR-FRET Red Assay)
# SETUP_CONDITIONS: purified recombinant full-length protein; 2 hours pre-incubation with compound
PARAMETER_MEASURED: IC50

The following compounds have reported results that may help.
1) Cc1cc([C@H](C)Nc2ccccc2S(N)(=O)=O)c2nc(N3Cc4ccc(F)cc4C3)n(C)c(=O)c2c1 (single isomer, unassigned) ... ≥ 1000 nM
2) Cc1cc([C@@H](C)Nc2ccn[nH]c2=O)c2nc(N3Cc4ccc(F)cc4C3)n(C)c(=O)c2c1 ... ≥ 1000 nM

QUERY: IC50 lookup needed for CCn1cc2c(n1)CN(c1nc3c([C@@H](C)Nc4ccc(Cl)nc4C(=O)NS(C)(=O)=O)cc(C)cc3c(=O)n1C)C2 , thanks.
RESULT: 100 to 250 nM

QUERY: IC50 lookup needed for Cc1cc([C@@H](C)Nc2ccc(Cl)nc2S(=O)(=O)NC(=O)N(C)C)c2nc(N3Cc4ccc(F)cc4C3)n(C)c(=O)c2c1 , thanks.
RESULT: ≥ 1000 nM

QUERY: IC50 lookup needed for Cc1cc([C@@H](C)Nc2ccc(Cl)nc2C(=O)NS(C)(=O)=O)c2nc(N3CCCC3)n(C)c(=O)c2c1 , thanks.
RESULT: 250 to 500 nM

QUERY: IC50 lookup needed for Cc1cc([C@@H](C)Nc2ccc(Cl)nc2C(=O)NS(C)(=O)=O)c2nc(N3CCOC[C@H]3C)n(C)c(=O)c2c1 , thanks.
RESULT: 500 to 1000 nM

###

IC50 values, listed per item
# System: T47D (PI3Kα-H1047R) cell line
# METHOD_SUMMARY: HTRF phospho-AKT(S473) cell assay in T47D cells
# Type: cell-based, human
# SETUP_CONDITIONS: Homo sapiens; HTRF phospho-AKT(S473), T47D (PI3Kα-H1047R) cells, 2 hours compound incubation

The following compounds have reported results that may help.
1. Cc1cc([C@@H](C)Nc2ccc(Cl)nc2C(=O)NS(C)(=O)=O)c2nc(N3CCN(c4nc(C(F)F)ncc4F)CC3)n(C)c(=O)c2c1 ... < 250 nM
2. Cc1cc([C@@H](C)Nc2ccc(Cl)nc2C(=O)NS(C)(=O)=O)c2nc(N3CCC[C@H](c4nccc(C)n4)C3)n(C)c(=O)c2c1 (relative stereo) ... 1000 to 5000 nM
3. Cc1cc([C@@H](C)Nc2ccc(Cl)nc2C(=O)NS(C)(=O)=O)c2nc(N3Cc4cn(CC(F)(F)F)nc4C3)n(C3CC3)c(=O)c2c1 ... 250 to 500 nM

QUERY: IC50 lookup needed for Cc1cc([C@@H](C)Nc2ccc(Cl)nc2C(=O)NS(C)(=O)=O)c2nc(N3C[C@@H]4[C@H](C3)[C@H]4c3cnc(C(F)(F)F)nc3)n(C)c(=O)c2c1 , thanks.
RESULT: 250 to 500 nM

QUERY: IC50 lookup needed for Cc1cnc([C@H]2CCCN(c3nc4c([C@@H](C)Nc5ccc(Cl)nc5C(=O)NS(C)(=O)=O)cc(C)cc4c(=O)n3C)C2)nc1 (relative stereo) , thanks.
RESULT: 500 to 1000 nM

###

# Tested on: SKBR3 (PI3Kα-Wild Type) cell line
# METHOD_SUMMARY: HTRF phospho-AKT(S473) cell assay in SKBR3 cells
# Assay type: cell-based, human
# SETUP_CONDITIONS: Homo sapiens, SK-BR-3; HTRF phospho-AKT(S473), SKBR3 (PI3Kα-Wild Type) cells, 2 hours compound incubation, PDGF-BB stimulated
IC50 values, listed per item

QUERY: IC50 lookup needed for CCn1c(N2C[C@@H]3[C@H](C2)[C@H]3c2cn(C)nn2)nc2c([C@@H](C)Nc3ccc(Cl)nc3C(=O)NS(C)(=O)=O)cc(C)cc2c1=O [Compound 622] , thanks.
RESULT: 1 to 5 µM

QUERY: IC50 lookup needed for Cc1cc([C@@H](C)Nc2ccc(Cl)nc2C(=O)NS(C)(=O)=O)c2nc([C@H]3[C@@H]4CN(c5ncc(Cl)cn5)C[C@@H]43)n(C)c(=O)c2c1 [Compound 825] , thanks.
RESULT: ≥ 5 µM

QUERY: IC50 lookup needed for [2H]C([2H])([2H])n1ccc([C@H]2[C@@H]3CN(c4nc5c([C@@H](C)Nc6ccc(Cl)nc6C(=O)NS(C)(=O)=O)cc(C)cc5c(=O)n4CC)C[C@@H]32)n1 [Compound 731] , thanks.
RESULT: 1 to 5 µM

QUERY: IC50 lookup needed for Cc1cc([C@@H](C)Nc2ccc(Cl)nc2C(=O)NS(C)(=O)=O)c2nc(-c3ccc(N4CCN(C)CC4)cc3)n(C)c(=O)c2c1 [Compound 790] , thanks.
RESULT: ≥ 5 µM

QUERY: IC50 lookup needed for Cc1cc([C@@H](C)Nc2ccc(Cl)nc2C(=O)NS(C)(=O)=O)c2nc(N3CCN(c4cnc(C)c(F)c4)CC3)n(C)c(=O)c2c1 [Compound 652] , thanks.
RESULT: 1 to 5 µM

QUERY: IC50 lookup needed for Cc1cc([C@@H](C)Nc2ccc(Cl)nc2C(=O)NS(C)(=O)=O)c2nc(-c3ccc(-c4cn(C)cn4)cc3)n(C)c(=O)c2c1 [Compound 802] , thanks.
RESULT: 1 to 5 µM

QUERY: IC50 lookup needed for Cc1cnc(C2[C@H]3CN(c4nc5c([C@@H](C)Nc6ccc(Cl)nc6C(=O)NS(C)(=O)=O)cc(C)cc5c(=O)n4C)C[C@@H]23)nc1 (stereo partly drawn) [Compound 515] , thanks.
RESULT: 1 to 5 µM

QUERY: IC50 lookup needed for Cc1cc([C@@H](C)Nc2ccc(Cl)nc2C(=O)NS(C)(=O)=O)c2nc(N3CCN(c4nc(C)ncc4Cl)CC3)n(C)c(=O)c2c1 [Compound 727] , thanks.
RESULT: 1 to 5 µM

###

# Test system: SKBR3 (PI3Kα-Wild Type) cell line
# METHOD_SUMMARY: HTRF phospho-AKT(S473) cell assay in SKBR3 cells
# Type: cell-based, human
# SETUP_CONDITIONS: Homo sapiens, SK-BR-3; HTRF phospho-AKT(S473), SKBR3 (PI3Kα-Wild Type) cells, 2 hours compound incubation, PDGF-BB stimulated
# Method: Compounds in the present disclosure were tested in a cell based HTRF phospho-AKT(S473) (CisBio/Revvity) assay in human breast cancer cell lines as a measurement of PIK3CA activity through measuring AKT, a downstream effector. The activity of mutant PI3Kα-H1047R and PI3Kα-Wild Type was measured in the T47D (PI3Kα-H1047R) and SKBR3 (PI3Kα-Wild Type) cell lines, respectively. […] The following day, plates were centrifuged for 1 minute at 1000 rpm, and read on a PHERAstar plate reader. […]
pIC50: −log10 of the molar value.
pIC50 values, listed per item

1. Cc1cc([C@@H](C)Nc2ccc(Cl)nc2C(=O)NS(C)(=O)=O)c2nc(N3C[C@@H]4[C@H](C3)[C@H]4c3cc(C)ncc3F)n(C)c(=O)c2c1 ... 5.30 to 6.00
2. Cc1cc([C@@H](C)Nc2ccc(Cl)nc2C(=O)NS(C)(=O)=O)c2nc(N3CCC(c4nnc(C)n4C(F)F)CC3)n(C)c(=O)c2c1 ... 5.30 to 6.00
3. COc1cc(N2CCN(c3nc4c([C@@H](C)Nc5ccc(Cl)nc5C(=O)NS(C)(=O)=O)cc(C)cc4c(=O)n3C)CC2)ccn1 ... 5.30 to 6.00
4. Cc1cc([C@@H](C)Nc2ccc(Cl)nc2C(=O)NS(C)(=O)=O)c2nc(N3CCC(c4ncc(C(F)(F)F)cn4)CC3)n(C)c(=O)c2c1 ... ≤ 5.30
5. Cc1cc([C@@H](C)Nc2ccc(Cl)nc2C(=O)NS(C)(=O)=O)c2nc(-c3ccc4nn(C)cc4c3C)n(C)c(=O)c2c1 ... 5.30 to 6.00

QUERY: pIC50 lookup needed for Cc1cc([C@@H](C)Nc2ccc(Cl)nc2C(=O)NS(C)(=O)=O)c2nc(N3CCC4(CCCN(c5ccn(C)n5)C4)C3)n(C)c(=O)c2c1 (some centres unmarked) , thanks.
RESULT: ≤ 5.30

QUERY: pIC50 lookup needed for Cc1cc([C@@H](C)Nc2ccc(Cl)nc2C(=O)NS(C)(=O)=O)c2nc(N3C[C@@H]4[C@H](C3)[C@H]4c3n[nH]c(C)c3F)n(C)c(=O)c2c1 , thanks.
RESULT: 5.30 to 6.00

QUERY: pIC50 lookup needed for CC(=O)N1CCN(c2ccc(-c3nc4c([C@@H](C)Nc5ccc(Cl)nc5C(=O)NS(C)(=O)=O)cc(C)cc4c(=O)n3C)cc2F)CC1(C)C , thanks.
RESULT: ≤ 5.30

QUERY: pIC50 lookup needed for Cc1cc([C@@H](C)Nc2ccc(Cl)nc2C(=O)NS(C)(=O)=O)c2nc(N3CCC(c4cc(C)no4)CC3)n(C)c(=O)c2c1 , thanks.
RESULT: ≤ 5.30

QUERY: pIC50 lookup needed for Cc1cc([C@@H](C)Nc2ccc(Cl)nc2C(=O)NS(C)(=O)=O)c2nc(N3[C@@H]4CC[C@H]3C[C@@H](n3ncc5ccccc53)C4)n(C)c(=O)c2c1 , thanks.
RESULT: ≤ 5.30

QUERY: pIC50 lookup needed for Cc1cc([C@@H](C)Nc2ccc(Cl)nc2C(=O)NS(C)(=O)=O)c2nc(N3Cc4nccnc4C3)n(C)c(=O)c2c1 , thanks.
RESULT: 5.30 to 6.00

QUERY: pIC50 lookup needed for Cc1cc([C@@H](C)Nc2ccc(Cl)nc2C(=O)NS(C)(=O)=O)c2nc(N3CCC[C@H](c4nccc(C)n4)C3)n(C)c(=O)c2c1 (relative stereo) , thanks.
RESULT: ≤ 5.30

QUERY: pIC50 lookup needed for Cc1cc([C@@H](C)Nc2ccc(Cl)nc2C(=O)NS(C)(=O)=O)c2nc(N3CCC(c4cnc(C)o4)CC3)n(C)c(=O)c2c1 , thanks.
RESULT: 5.30 to 6.00

QUERY: pIC50 lookup needed for COc1ccc(N2C[C@@H]3C[C@H]2CN3c2nc3c([C@@H](C)Nc4ccc(Cl)nc4C(=O)NS(C)(=O)=O)cc(C)cc3c(=O)n2C)cn1 , thanks.
RESULT: ≤ 5.30

QUERY: pIC50 lookup needed for [2H]C([2H])([2H])n1ccc([C@H]2[C@@H]3CN(c4nc5c([C@@H](C)Nc6ccc(Cl)nc6C(=O)NS(C)(=O)=O)cc(C)cc5c(=O)n4C4CC4)C[C@@H]32)n1 , thanks.
RESULT: 5.30 to 6.00

QUERY: pIC50 lookup needed for Cc1cc([C@@H](C)Nc2ccc(Cl)nc2C(=O)NS(C)(=O)=O)c2nc(N3CC[C@@H](Oc4ccc(F)cn4)C3)n(C)c(=O)c2c1 , thanks.
RESULT: 5.30 to 6.00

QUERY: pIC50 lookup needed for Cc1cc([C@@H](C)Nc2ccc(Cl)nc2C(=O)NS(C)(=O)=O)c2nc(N3CCC(c4nc(C)nn4C)CC3)n(C)c(=O)c2c1 , thanks.
RESULT: ≤ 5.30
